Hey, just so you know, these numbers are from patent US20230129095A1.

- Procedure Details: Stability in cynomolgus monkey fecal homogenate (anaerobic)
- Type: in vitro ADME
- Run Parameters: pH 6.8, 20% cynomolgus monkey fecal homogenate, 37° C., up to 24 hours, read-out: t1/2: Monkey Feces anaerobic (converted)
*1 amine or outer side, *2 acyl side, *3 side chain or, on linkers, in order; H or OH if unused. Where a SMILES comes first, the peptide text is derived from it. Bridges are numbered along the chain shown (N, C = ends). [ ]: non-standard residue; d: D form. X1 = O=C([C@H](Cc1c[nH]c2c(-c3cccc(C(F)(F)F)c3)cccc12)N[*:1])[*:2]; X5 = CC(C)c1cccc(-c2cccc3c(C[C@H](N[*:1])C(=O)[*:2])c[nH]c23)c1; X8 = COc1cccc(-c2cccc3c(C[C@H](N[*:1])C(=O)[*:2])c[nH]c23)c1; Trp(7-Ph) = N[C@@H](Cc1c[nH]c2c(-c3ccccc3)cccc12)C(=O)O; Abu(4-yl) = O=C([C@H](CC[*:3])N[*:1])[*:2]; 2Nal = N[C@@H](Cc1ccc2ccccc2c1)C(=O)O; AEF = NCCOc1ccc(C[C@H](N)C(=O)O)cc1; Pen = CC(C)(S)[C@H](N)C(=O)O; αMeK = C[C@](N)(CCCCN)C(=O)O
Please respond with reported half-life at 20 μM for every item in the list.

>  <Compound>
CC(=O)NCCCC[C@@H]1NC(=O)[C@H](Cc2c[nH]c3c(-c4cccc(C(C)C)c4)cccc23)NC(=O)[C@H]([C@@H](C)O)NC(=O)[C@H](CC(N)=O)NC(=O)[C@@H](NC(C)=O)C(C)(C)SSC(C)(C)[C@@H](C(=O)N[C@@H](Cc2ccc(OCCN)cc2)C(=O)N[C@@H](Cc2ccc3ccccc3c2)C(=O)N[C@@](C)(CCCCN)C(=O)N[C@@H](CCCCNC(C)=O)C(=O)N[C@@H](CC(N)=O)C(=O)N[C@H](CCCCN)C(N)=O)NC1=O [Peptide 11] (Ac-[Pen]NT[X5]K(Ac)[Pen][AEF][2Nal][αMeK]K(Ac)N[dK]-NH2; disulfide 1-6)

>  <half-life at 20 μM>
> 1440 min

$$$$
>  <Compound>
COc1cccc(-c2cccc3c(C[C@@H]4NC(=O)[C@H]([C@@H](C)O)NC(=O)[C@H](CC(N)=O)NC(=O)[C@@H](NC(C)=O)C(C)(C)SSC(C)(C)[C@@H](C(=O)N[C@@H](Cc5ccc(OCCN)cc5)C(=O)N[C@@H](Cc5ccc6ccccc6c5)C(=O)N[C@@](C)(CCCCN)C(=O)N[C@@H](CCCCNC(C)=O)C(=O)N[C@@H](CC(N)=O)C(=O)N[C@H](CCCCN)C(N)=O)NC(=O)[C@H](CCCCNC(C)=O)NC4=O)c[nH]c23)c1 [Peptide 8] (Ac-[Pen]NT[X8]K(Ac)[Pen][AEF][2Nal][αMeK]K(Ac)N[dK]-NH2; disulfide 1-6)

>  <half-life at 20 μM>
> 1440 min

$$$$
>  <Compound>
CC(=O)NCCCC[C@@H]1NC(=O)[C@H](Cc2c[nH]c3c(-c4cccc(C(F)(F)F)c4)cccc23)NC(=O)[C@H]([C@@H](C)O)NC(=O)[C@H](CC(N)=O)NC(=O)[C@@H](NC(C)=O)C(C)(C)SSC(C)(C)[C@@H](C(=O)N[C@@H](Cc2ccc(OCCN)cc2)C(=O)N[C@@H](Cc2ccc3ccccc3c2)C(=O)N[C@@](C)(CCCCN)C(=O)N[C@@H](CCCCNC(C)=O)C(=O)N[C@@H](CC(N)=O)C(=O)N[C@H](CCCCN)C(N)=O)NC1=O [Peptide 9] (Ac-[Pen]NT[X1]K(Ac)[Pen][AEF][2Nal][αMeK]K(Ac)N[dK]-NH2; disulfide 1-6)

>  <half-life at 20 μM>
> 1440 min

$$$$

The record that follows has no half-life at 20 μM shown yet.
Input line: Fill in: half-life at 20 μM of CC(=O)NCCCC[C@@H]1NC(=O)[C@H](Cc2c[nH]c3c(-c4ccccc4)cccc23)NC(=O)[C@H]([C@@H](C)O)NC(=O)[C@H](CCC(N)=O)NC(=O)[C@@H](NC(C)=O)CCSC[C@@H](C(=O)N[C@@H](Cc2ccc(OCCN)cc2)C(=O)N[C@@H](Cc2ccc3ccccc3c2)C(=O)N[C@@](C)(CCCCN)C(=O)N[C@@H](CCCCNC(C)=O)C(=O)N[C@@H](CC(N)=O)C(=O)N[C@H](CCCCN)C(N)=O)NC1=O [Peptide 19] (Ac-[Abu(4-yl)]QT[Trp(7-Ph)]K(Ac)C[AEF][2Nal][αMeK]K(Ac)N[dK]-NH2; thioether 1-6) is ___
Output line: 1310 min
